Ref: ChEMBL document CHEMBL1255566

# Test system: Mus musculus
# assay-explanation: Ratio of ED50 for santihypothermic activity in po dosed NMRI mouse to ED50 for antihypothermic activity in ip dosed NMRI mouse
# Format: functional
readout-name: Ratio ED50
Please give the numeric answer without any surrounding text.

As a guide, the following entries are already answered.
{"columns": ["compound", "Ratio ED50"],
 "data": [
  ["CC1(C)C2c3ccccc3C[C@@]21c1c[nH]cn1 (single isomer, unassigned)", 6.7],
  ["CCC1(c2c[nH]cn2)Cc2ccccc2C1", 10.3],
  ["CC[C@H]1c2ccccc2[C@H]2C[C@]21c1c[nH]cn1 (relative stereo)", 1.3],
  ["c1ccc2c(c1)[C@H]1C[C@@]1(c1c[nH]cn1)C21CC1 (stereo in doubt; 10)", 3.7],
  ["C[C@H]1[C@@H]2c3ccccc3C[C@]12c1c[nH]cn1", 3.2]
]}

Recorded Ratio ED50 of CCO[C@H]1c2ccccc2[C@H]2C[C@]21c1c[nH]cn1 (relative stereo) , please.
0.2
